measured_on: Arginase-2, mitochondrial (Homo sapiens) (UniProt P78540)
Sequence (P78540 whole entry): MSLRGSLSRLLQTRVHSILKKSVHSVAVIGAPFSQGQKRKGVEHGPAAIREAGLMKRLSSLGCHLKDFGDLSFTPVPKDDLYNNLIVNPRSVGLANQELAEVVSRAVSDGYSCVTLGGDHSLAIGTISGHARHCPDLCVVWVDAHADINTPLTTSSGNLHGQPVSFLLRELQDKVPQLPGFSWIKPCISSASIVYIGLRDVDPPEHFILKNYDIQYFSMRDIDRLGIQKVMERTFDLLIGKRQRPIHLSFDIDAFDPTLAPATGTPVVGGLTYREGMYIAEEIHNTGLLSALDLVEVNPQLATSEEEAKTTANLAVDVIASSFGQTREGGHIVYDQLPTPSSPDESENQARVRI
experiment_notes: in vitro enzyme assay to detect the production of urea directly proportional to the activity of Arginase II
Type: functional
Set-up: scale not given: in the data most compounds retested in dose-response had high values
protocol_conditions: 33.3 µM
assay_endpoint: Percent Effect (%)
Unit % implied. Number only.

Record COc1cccc(Cc2nnc(SC3CCOC3=O)o2)c1 (stereo not given) : what is its Percent Effect with Arginase-2, mitochondrial (Homo sapiens) (UniProt P78540)?
0.521

Record Cc1nc2c(c(C)c1CC(=O)Nc1ccc(Cl)cc1)c(=O)[nH]n2C : what is its Percent Effect with Arginase-2, mitochondrial (Homo sapiens) (UniProt P78540)?
6.77

Record CN1CCCC1c1ccc(C(=O)N2CCc3ccccc3C2)s1 (stereo not given) : what is its Percent Effect with Arginase-2, mitochondrial (Homo sapiens) (UniProt P78540)?
-2.73

Record Cc1oc(-c2nc(C#N)c(N(C)C)o2)cc1S(=O)(=O)N1CCCC1 : what is its Percent Effect with Arginase-2, mitochondrial (Homo sapiens) (UniProt P78540)?
-7.92

Record CCn1cnnc1C1CCN(C(=O)COc2ccccc2)CC1 : what is its Percent Effect with Arginase-2, mitochondrial (Homo sapiens) (UniProt P78540)?
-0.21
